PROCEDURE DETAILS: chemical genetic growth profiling, strain panel (AID 1159580);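 further: tested at 20 µM; growth read once vehicle control cultures reached saturation at 30 °C; lower values mean less growth of the strain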
CONDITION: S. cerevisiae deletion strains, growth OD, locus YIL066C, strain RNR3
About 2,000 (36%) of roughly 5,500 compounds were called active. Inconclusive results (about 18%) are left out. No stated cut-off is given here; in the data, active means normalized growth mostly below about 0.91 (no sharp cut-off); inconclusive means no clear call, values can overlap the other calls; inactive means mostly above about 0.92. Some of the results follow.
Returns: one label drawn from active, inactive

For CN[C@@H]1C(OC2[C@H](O[C@H]3[C@H](O)[C@@H](O)[C@H](N=C(N)N)[C@@H](O)[C@@H]3N=C(N)N)OC(C)[C@]2(O)CO)OC(CO)C(O)C1O (stereo not given in full) , what call appears in the results of this test? inactive

Fill in: this test's call for `OC[C@H]1O[C@@H](n2cnc3c(NCc4ccco4)ncnc32)[C@H](O)[C@@H]1O` is ___ inactive

State the result this test recorded for CCCCCCCCCCCCCC(=O)OC1C(C)C2(O)C(C=C(CO)CC3(O)C(=O)C(C)=CC32)C2C(C)(C)C12OC(C)=O (stereo not given) . inactive

Per the records of this test, what outcome belongs to CN=C(N)NCCCC(N)C(=O)O (stereo not given) ? inactive

Hi team, can someone confirm the assay call for `Fc1ccc([C@@H]2CCNC[C@H]2COc2ccc3c(c2)OCO3)cc1` ? inactive

What did the test return for CC1CCC(NC(=O)N(CCCl)N=O)CC1 (stereo not given) ? inactive

Test call for this compound, please: `O=C(O)COc1ccc(Cl)cc1Cl` inactive

What was the test verdict on `O=NN(CCCl)C(=O)NCCCl` ? inactive

GET /call?item= `COc1c(C)c2c(c(O)c1C/C=C(\C)CCC(=O)O)C(=O)OC2` returns the recorded outcome of this test. active

Answer briefly: the call reported for O=C(O)CCC1NCC2CC1CN1CCCCC21 (stereo not given) in this assay. inactive
